target: ΔF508-CFTR (Homo sapiens, UniProt P13569, DEL508-508); construct: host or cells: CFBE41o-, doxycycline-inducible; experiment: CFTR cell surface levels using HRP-tagged ΔF508-CFTR expressing CFBE cells, in the presence of a co-corrector; format: cell-based; conditions: HRP-tagged ΔF508-CFTR expressing CFBE cells, in the presence of 3 μM co-corrector
Sequence (P13569 with tags, fused parts or gaps DEL508-508): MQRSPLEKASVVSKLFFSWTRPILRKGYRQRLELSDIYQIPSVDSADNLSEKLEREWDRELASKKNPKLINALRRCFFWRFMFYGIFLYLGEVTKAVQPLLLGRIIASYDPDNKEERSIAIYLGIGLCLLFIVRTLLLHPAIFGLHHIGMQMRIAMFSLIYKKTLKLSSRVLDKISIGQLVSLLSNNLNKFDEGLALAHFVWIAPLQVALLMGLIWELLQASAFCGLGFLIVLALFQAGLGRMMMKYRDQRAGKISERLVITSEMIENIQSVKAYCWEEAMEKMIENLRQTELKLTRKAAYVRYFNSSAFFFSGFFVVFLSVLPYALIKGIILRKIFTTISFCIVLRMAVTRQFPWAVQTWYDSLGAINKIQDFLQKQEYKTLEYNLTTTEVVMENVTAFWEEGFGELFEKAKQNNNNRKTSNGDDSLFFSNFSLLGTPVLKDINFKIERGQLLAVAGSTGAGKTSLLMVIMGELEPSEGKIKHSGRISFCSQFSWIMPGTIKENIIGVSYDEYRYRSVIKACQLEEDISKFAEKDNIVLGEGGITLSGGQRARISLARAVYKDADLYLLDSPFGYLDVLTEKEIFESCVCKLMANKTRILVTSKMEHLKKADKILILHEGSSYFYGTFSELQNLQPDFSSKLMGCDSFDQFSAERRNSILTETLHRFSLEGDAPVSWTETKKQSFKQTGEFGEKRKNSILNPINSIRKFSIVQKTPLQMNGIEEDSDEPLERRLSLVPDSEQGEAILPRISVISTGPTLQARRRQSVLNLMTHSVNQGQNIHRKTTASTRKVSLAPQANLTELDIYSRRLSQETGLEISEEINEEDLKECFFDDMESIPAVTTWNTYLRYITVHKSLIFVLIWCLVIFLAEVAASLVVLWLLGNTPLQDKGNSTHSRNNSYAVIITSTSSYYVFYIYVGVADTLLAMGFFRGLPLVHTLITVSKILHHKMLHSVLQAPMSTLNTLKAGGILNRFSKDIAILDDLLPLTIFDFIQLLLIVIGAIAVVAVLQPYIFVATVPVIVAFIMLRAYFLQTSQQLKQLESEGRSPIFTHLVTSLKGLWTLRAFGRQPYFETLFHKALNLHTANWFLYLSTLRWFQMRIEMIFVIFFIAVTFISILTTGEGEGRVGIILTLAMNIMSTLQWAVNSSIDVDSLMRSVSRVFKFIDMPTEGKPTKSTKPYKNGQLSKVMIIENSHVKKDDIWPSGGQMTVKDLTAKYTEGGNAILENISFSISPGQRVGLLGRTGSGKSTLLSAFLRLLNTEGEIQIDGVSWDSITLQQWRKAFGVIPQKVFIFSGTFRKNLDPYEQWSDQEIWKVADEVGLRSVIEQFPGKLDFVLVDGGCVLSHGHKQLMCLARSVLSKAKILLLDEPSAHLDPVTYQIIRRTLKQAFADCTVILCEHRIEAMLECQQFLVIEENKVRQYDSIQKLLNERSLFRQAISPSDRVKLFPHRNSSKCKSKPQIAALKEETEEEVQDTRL
% Activation values for the compounds below.
Express it in %; write the number only.

The following compounds have reported results that may help.
For the compound Cc1nn(-c2ccccc2)c2nc(C(=O)O)cc(O[C@H]3C[C@@H](N4CCS(=O)(=O)CC4)C3)c12 [compound 333] , what % Activation is on record?
150.85

For the compound CC(C)c1nn(-c2cc(F)cc(F)c2)c2nc(C(=O)O)cc(-c3ccc(N4CCOCC4)cc3)c12 [compound 268] , what % Activation is on record?
425.68

For the compound CC(C)c1nn(-c2ccc(F)cc2)c2nc(C(=O)O)cc(N3CCC4(CCCO4)CC3)c12 [compound 401] , what % Activation is on record?
306.07

---
For the compound CN(C)c1ncc(-c2cc(C(=O)O)nc3c2c(C(C)(C)C)nn3C2CCCC2)cn1 [compound 91] , what % Activation is on record?
176.6

For the compound CC1CN(c2ccc(-c3cc(C(=O)O)nc4c3c(C(C)C)nn4C3CCCCC3)cn2)CC(C)O1 (stereo not shown) [compound 196] , what % Activation is on record?
520.8

For the compound COCCN(C)c1ccc(-c2cc(C(=O)O)nc3c2c(C(C)C)nn3C2CCCCC2)cn1 [compound 170] , what % Activation is on record?
482.4

For the compound Cc1cccc(-n2nc(C(C)C)c3c(N4CC5(CCOCC5)C4)cc(C(=O)O)nc32)c1 [compound 258] , what % Activation is on record?
364.3

For the compound O=C(O)c1cc(OCCN2CCCC2)c2c(C3CCC3)nn(-c3ccccc3)c2n1 [compound 628] , what % Activation is on record?
217.7

For the compound Cc1nn(-c2ccccc2)c2nc(C(=O)O)cc(OCC3(F)CCCN(C4COC4)C3)c12 (stereo not shown) [compound 381] , what % Activation is on record?
182.9

For the compound O=CN1CCCN(CC2CCN(c3cc(C(=O)O)nc4c3c(C3CCC3)nn4-c3ccccc3)CC2)CC1 [compound 839] , what % Activation is on record?
437.3

For the compound O=C(O)c1cc(OCC2CCC(F)(F)C2)c2c(C3CCC3)nn(-c3ccccc3)c2n1 (stereo not shown) [compound 435] , what % Activation is on record?
290.05

For the compound O=C(O)c1cc(N2C[C@@H](F)C[C@@H]2CO)c2c(C3CCC3)nn(-c3ccccc3)c2n1 [compound 514] , what % Activation is on record?
178.2

For the compound O=C(O)c1cc(OCC2CCCCC2)c2c(C3CCC3)nn(-c3ccccc3)c2n1 [compound 407] , what % Activation is on record?
323.95

For the compound O=C(O)c1cc(N2CCOC(C(F)(F)F)C2)c2c(C3CCC3)nn(-c3ccccc3)c2n1 (stereo not shown) [compound 596] , what % Activation is on record?
299.4

For the compound CC1(COc2cc(C(=O)O)nc3c2c(C2CCC2)nn3-c2ccccc2)COCOC1 [compound 622] , what % Activation is on record?
275.2

For the compound O=C(O)c1cc(N2CCC(CCCN3CCCCC3)CC2)c2c(C3CCC3)nn(-c3ccccc3)c2n1 [compound 732] , what % Activation is on record?
409.6
